Please provide measured Vd for the entries that follow.
# METHOD_SUMMARY: Volume of distribution at steady state in Wistar rat at 3 mg/kg, iv by LC-Ms/MS analysis
# Assay type: ADME, organism-based
# CONDITIONS_USED: in vivo, read-out: Vdss
The response must be a number in L/kg with no trailing unit.

Q. Form field: reported Vd of CCCn1c(Oc2cccnc2C)nc2nc(C3CCCC3)[nH]c2c1=O
A. 2

Q. Also check CCCn1c(-c2cccc(OC)c2)nc2nc(C3CCCC3)[nH]c2c1=O
A. 1.2

Q. Also check CCCn1c(Oc2ccc(F)c(F)c2)nc2nc(C3CCCC3)[nH]c2c1=O
A. 1.73

Q. Also check CCCn1c(OC2CCC(O)C2)nc2nc(C3CCCC3)[nH]c2c1=O (centres undefined)
A. 0.8

Attribution: ChEMBL document CHEMBL3992564
